Source: patent US20250011363A1

# assayed_target: acetylcholine receptor
# experiment_summary: SPR, AchR immobilised on CM5 chip, peptide 10 uM
Please respond with reported Binding affinity (RU) for every item in the list.
One number for each entry, in RU.

binder="KRHMVK [6mer-1-1033]" assay_value=30
binder="KIEMKR [6mer-2-653]" assay_value=20
binder="RKICAK [6mer-1-980]" assay_value=33
binder="KIDIRR [6mer-2-740]" assay_value=12
binder="RRFTER [6mer-1-990]" assay_value=40

Give measured Binding affinity (RU) for every item shown.
1. RFCWKK [6mer-2-629]
2. KHTVKK [6mer-2-639]
3. RKETDR [6mer-1-936]

**Result**
1: 32; 2: 23; 3: 36
